- TEST DESCRIPTION: Toxicity against brine shrimp
- Type: organism-based
- ASSAY CONDITIONS: artemia, in vivo
VALUE KIND: LC50 (µg/mL)
Report the value in µg/mL with no unit label.

So for `COC(=O)c1cc(O)c(O)c2c1[C@]1(C)CC[C@H]3C(C)(C)CCC[C@]3(C)[C@H]1C2` , the logged LC50 turned out to be 5

Origin of measurements: ChEMBL document CHEMBL1155572
